# experimental_target: human AR (androgen receptor) (Homo sapiens, UniProt P10275)
# Construct: expressed in transfected cells; host or cells: 293 cells (293-AR lysate)
# Sequence (P10275 whole entry): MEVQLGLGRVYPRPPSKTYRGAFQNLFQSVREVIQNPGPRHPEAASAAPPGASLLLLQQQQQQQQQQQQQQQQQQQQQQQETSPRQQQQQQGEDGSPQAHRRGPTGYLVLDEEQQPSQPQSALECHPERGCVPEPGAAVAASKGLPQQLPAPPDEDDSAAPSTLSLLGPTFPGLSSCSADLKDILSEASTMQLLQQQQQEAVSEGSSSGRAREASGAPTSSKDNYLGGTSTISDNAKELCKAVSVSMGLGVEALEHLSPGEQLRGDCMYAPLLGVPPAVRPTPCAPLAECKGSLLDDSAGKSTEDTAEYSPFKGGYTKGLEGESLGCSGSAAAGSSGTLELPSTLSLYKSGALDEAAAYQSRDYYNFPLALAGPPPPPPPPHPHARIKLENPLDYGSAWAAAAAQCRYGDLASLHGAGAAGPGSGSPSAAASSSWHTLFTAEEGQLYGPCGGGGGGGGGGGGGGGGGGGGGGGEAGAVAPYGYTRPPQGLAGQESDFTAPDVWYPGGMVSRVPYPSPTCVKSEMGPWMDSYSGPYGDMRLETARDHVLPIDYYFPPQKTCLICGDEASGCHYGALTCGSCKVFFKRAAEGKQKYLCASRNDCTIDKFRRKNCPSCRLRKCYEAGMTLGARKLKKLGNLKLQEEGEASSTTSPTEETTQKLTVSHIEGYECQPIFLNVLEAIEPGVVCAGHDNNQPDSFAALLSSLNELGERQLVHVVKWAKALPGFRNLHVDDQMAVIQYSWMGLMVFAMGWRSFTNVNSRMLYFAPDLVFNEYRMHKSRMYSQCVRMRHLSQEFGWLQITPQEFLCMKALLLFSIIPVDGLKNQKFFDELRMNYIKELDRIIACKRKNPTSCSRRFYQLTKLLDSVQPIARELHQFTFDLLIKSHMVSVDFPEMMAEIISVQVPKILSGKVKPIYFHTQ
# test_summary: Steroid hormone nuclear receptor binding assay, AR binding
pKi: −log10 of the molar value.
label 1 means recorded pKi is 8 or above; label 0 means it is below 8.

Exercise: Is it the case that Cc1nc(Cn2c3c(c4cc(C#N)ccc42)CC(NC(=O)C(C)C)CC3)cs1 (centres unmarked) has pKi reaching or exceeding 8?
Key: label 0

Exercise: Is it the case that COc1ccc2c(c1)c1c(n2Cc2ccccc2Cl)CCC(NC(=O)C(C)C)C1 (centres unmarked) has pKi reaching or exceeding 8?
Key: label 0

Exercise: Is it the case that N#Cc1ccc2c(c1)c1c(n2Cc2cccc(F)c2)CCC(NS(=O)(=O)C2CC2)C1 (centres unmarked) has pKi reaching or exceeding 8?
Key: label 1
